Data credit: patent US20210395344A1

Each entry below carries its recorded Kd.
Molecular target: SARS-CoV-2 S1 (antigen of the Carterra SPR kinetics) (SARS-CoV-2, UniProt P0DTC2 16-685)
Assay: Carterra SPR
Quantity Kind: Kd (nM)

{"columns": ["Binder", "Recorded Result"],
 "data": [
  ["1-17 (antibody, V domains shown, also called variant 1-17) VH: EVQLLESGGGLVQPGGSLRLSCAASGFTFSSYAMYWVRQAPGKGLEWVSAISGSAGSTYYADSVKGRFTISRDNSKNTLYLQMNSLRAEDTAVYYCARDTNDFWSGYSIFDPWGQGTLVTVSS VL: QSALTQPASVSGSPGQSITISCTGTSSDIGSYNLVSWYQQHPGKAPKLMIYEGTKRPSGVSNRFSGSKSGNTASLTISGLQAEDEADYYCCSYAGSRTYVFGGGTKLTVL", 67.1],
  ["1-3 (antibody, V domains shown, also called variant 1-3) VH: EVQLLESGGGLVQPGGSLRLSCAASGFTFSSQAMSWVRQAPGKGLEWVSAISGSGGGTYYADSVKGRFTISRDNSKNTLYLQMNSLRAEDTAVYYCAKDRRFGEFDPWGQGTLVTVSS VL: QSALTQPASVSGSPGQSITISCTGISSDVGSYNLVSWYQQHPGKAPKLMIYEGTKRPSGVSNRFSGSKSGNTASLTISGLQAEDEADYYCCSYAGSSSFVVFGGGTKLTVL", 215],
  ["1-47 (antibody, V domains shown, also called variant 1-47) VH: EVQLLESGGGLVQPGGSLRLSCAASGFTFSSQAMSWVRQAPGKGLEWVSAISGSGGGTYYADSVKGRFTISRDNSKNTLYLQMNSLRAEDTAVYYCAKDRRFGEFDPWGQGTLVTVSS VL: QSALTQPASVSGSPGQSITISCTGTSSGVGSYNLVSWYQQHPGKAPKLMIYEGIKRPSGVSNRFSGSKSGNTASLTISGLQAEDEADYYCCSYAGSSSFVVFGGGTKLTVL", 38000],
  ["1-4 (antibody, V domains shown, also called variant 1-4) VH: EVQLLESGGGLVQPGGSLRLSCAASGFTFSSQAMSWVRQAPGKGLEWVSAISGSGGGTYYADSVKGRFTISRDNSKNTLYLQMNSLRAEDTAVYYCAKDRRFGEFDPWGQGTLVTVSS VL: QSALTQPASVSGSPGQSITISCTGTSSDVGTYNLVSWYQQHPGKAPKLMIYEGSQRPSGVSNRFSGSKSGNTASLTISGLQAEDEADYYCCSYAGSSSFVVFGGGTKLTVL", 2950],
  ["1-23 (antibody, V domains shown, also called variant 1-23) VH: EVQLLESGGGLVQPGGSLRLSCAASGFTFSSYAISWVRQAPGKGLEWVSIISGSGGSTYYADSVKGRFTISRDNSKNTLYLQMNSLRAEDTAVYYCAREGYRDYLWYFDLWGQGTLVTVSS VL: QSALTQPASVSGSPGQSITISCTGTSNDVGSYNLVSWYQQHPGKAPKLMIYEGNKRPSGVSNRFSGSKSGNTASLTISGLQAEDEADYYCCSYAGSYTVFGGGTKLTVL", 315]
]}
